# targetDesc: Ubiquitin-conjugating enzyme E2 N (Homo sapiens, UniProt P61088);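 note: Dose-response confirmation in a TR-FRET assay detecting UBC13-driven polyubiquitin chain formation, inhibition measured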
# Sequence (P61088 whole entry): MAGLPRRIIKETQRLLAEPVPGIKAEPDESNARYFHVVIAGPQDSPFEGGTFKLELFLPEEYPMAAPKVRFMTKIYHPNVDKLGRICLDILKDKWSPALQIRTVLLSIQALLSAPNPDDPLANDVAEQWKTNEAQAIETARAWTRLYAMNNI
# Type: functional
Active and inactive are the calls of the source.
The molecules listed here are annotated with their IC50.

Record excerpt, results attached:
COc1cc(C(=O)Nc2nc3ccc(S(C)(=O)=O)cc3s2)cc(OC)c1C = > 20 µM (inactive)
O=C(CCCN1C(=O)/C(=C/c2ccccc2Cl)SC1=S)NNC(=O)c1ccc(Cl)cc1 = > 20 µM (inactive)
O=C(NCCCN1CCOCC1)c1ccc2c(=O)n(Cc3cccc(Br)c3)c(=S)[nH]c2c1 = > 20 µM (inactive)
OCCN1CCN(CCCN2c3ccccc3Sc3ccc(C(F)(F)F)cc32)CC1 = 17.5 µM (active)
O=C1c2cccc3cccc(c23)N1Cc1cccc(F)c1 = 16.6 µM (active)

Then there is this molecule:
Q: GET /values?readout=IC50&item= O=C(NNC(=O)C1CCN(S(=O)(=O)c2ccc(Cl)cc2)CC1)c1ccc(S(=O)(=O)N2CCCCC2)cc1
A: > 20 µM (inactive)
